Test: yeast display, Sf9 membrane polyspecificity reagent, FACS + sequencing; frameworks hold sequencing errors
observable: polyreactivity (PSR sort gate)

[
  {
    "construct sequence": "QVQLVESGGGLVQAGGSLRLSCAASGSIFPIYAMGRYRQAPGKERELVAAIDSSGGSTYYADSVKGRFTISRDNAKNTVYLQMNSLKPEDTAVYYCAADFGSKSTPYDYWGQGTQVTVSS",
    "observable": "polyreactivity (PSR sort gate)",
    "result": "low polyreactivity"
  },
  {
    "construct sequence": "QVHLVESGGGLVQEGGSLRLSCAASGFTFDSYAMGWYRQAPGKERELVASISSSGSTNYADSVKGRFTISRDNAKNTVYLQMNSLKPEDTGVYYCAAESRYPFIYEYWGQGTQVTVSS",
    "observable": "polyreactivity (PSR sort gate)",
    "result": "low polyreactivity"
  }
]

* * *

Assay: yeast display, Sf9 membrane polyspecificity reagent, FACS + sequencing; frameworks hold sequencing errors
observable: polyreactivity (PSR sort gate)

Observe how each entry below is paired with its result.
[
  {
    "construct sequence": "QVQLVESGGGLVQAGGSLRLSCAASGSIFKYYAMGWYRQAPGKERELVAAITGSGGNTYYADSVKGRFTISRDNAKNTVYLQMNSLKPEDTAVYYCAATYWWAYVWAYSHVKSTNDYWGQGTQVTVSS",
    "polyreactivity (PSR sort gate)": "low polyreactivity"
  },
  {
    "construct sequence": "QVQLVESGGGLVQAGGSLRLSCAASGYIFKSNVMGWYRQAPGKERELVAAITTDGSTYYADSVKGRFTISRDNAKNTVYLQMNSLKPEDTAVYYCAAGKAYWYARKPYARYYYWGQGTQVTVSS",
    "polyreactivity (PSR sort gate)": "high polyreactivity"
  },
  {
    "construct sequence": "QVQLVESGGGLVQAGGSLRLSCAASGLTCTRNAMGWYRQAPGKEREFVAAIRWSAGSTYYADSVKGRFTISRDNAKNTVYLQMNSLTPEDTAVSYCNAALNVSGHYPNDYWGQGTQVTVSS",
    "polyreactivity (PSR sort gate)": "low polyreactivity"
  },
  {
    "construct sequence": "QVQLVESGGALGQAGGRLRLTCAASGSTFSIYGMGWYRQAHGKEREFVAALRTSGGRTYADSVKGRFTISRDNAKNTVYLQLNSLKPDDPAVDYCAAHVNYIYDWGQGTQVTVSS",
    "polyreactivity (PSR sort gate)": "high polyreactivity"
  },
  {
    "construct sequence": "QVQLVESGGGLVQAGGSLRLSCAASGSIFGGYTMGWYRQPPGKERELVATISRRGGRTYYADSVKGRFTISRDNAKNTVYLQMNSLKPEDTAVYYCAARWGRGLEFDYWGQGTQVTVSS",
    "polyreactivity (PSR sort gate)": "high polyreactivity"
  }
]

Below are 5 sequences. Give each one its polyreactivity (PSR sort gate).
1. QVQRVESGGGLVQAGGCLRLSSAASGFIFRYNDMGWYRQAPGKERQLVATITGSGTSTYYADSVKGRFTISRDNAKTTVYLQMNSLKPEDTAVYYCAAVTSYWYWYVGYDYWGQGTQVTVSS
2. QVQLVESGGGLVQAGGSLRLSCAASGSIFTYYVMGWYRQAPGKERELVAGITGGGSTNYADSVKGRFTISRDNAKNTVYLQMNSLKPEDTAVYYCNAYEYLSAGYDYWGQGTQVTVSS
3. QVQLVESGGGLVQAGGSLRLSCAASGFTFAVYAMGWYRQAPGKERELVAAISRSGTRTYYADSVKGRFTISRDNAKNTVYLQMNSLKPEDTAVYYCAADKYRHGYDYWGQGTQVTVSS
4. QVQLVESGGGLDQAGGSLRLICAASGTTFSPYAMGWYRQAPGKQRELGANITISGGSTFYADSVKGRFTISRDYAKNTDYLQMKSLKPEDTAVDYCNADSLIRWLFTVVIFDYCGQGTQVTVSS
5. QVQLVESGGGLVQAGGSLRLSCAASGIIFWDYAMGWYSQAPGKERELVAAISSSGSTTYYADSVKGRFTISRDNAKNTVYLQMNSLKPEDTAVYYCAAESLYEDDKGDYWGQGTQVTVSS

["high polyreactivity", "low polyreactivity", "low polyreactivity", "low polyreactivity", "high polyreactivity"]

Query: polyreactivity (PSR sort gate); subject: QVQLVESGGGLVQAGGSLRLSCAASGRILRPNAMGWYRQAPGKEREMVAAISVSGGRTYYADSVKGRFTISRDNAKNTVYLQMNSLKPEDTAVYYCAAKYKRGYDYWGQGTQVTVSS high polyreactivity

* * *

Experiment: yeast display, Sf9 membrane polyspecificity reagent, FACS + sequencing; frameworks hold sequencing errors

[
  {
    "construct sequence": "QVQLVESGGGLVQAGGSLRLSCAASGFIFSYYAMGWYRQAPGKERELVAAISISGGSTYYADSVKGRFTISRDNAKTTVYLQMNSLKPEDTAVYYCNKAPRYPYGGYDYWGQGTQVTVSS",
    "polyreactivity (PSR sort gate)": "low polyreactivity"
  },
  {
    "construct sequence": "QVQLVESGGGLVQAGGSLRLSCAASGRTFRRYVMGWYRQAPGKERELVASITRGTGTDYADSVKGRFTISRDNAKNTVYLQMNSLKPEDTAVYYCNAEVKGFFYDYDYWGQGTQVTVSS",
    "polyreactivity (PSR sort gate)": "low polyreactivity"
  },
  {
    "construct sequence": "QEQLVESGGGLVQAGGSLRLSCAASGFTFYFNAMGWYRQAPGKERELVAGITSDGITYYADSVKGRFTISRDNANNTVYLQMNSLKPEDTAVYYCAARKLEWDIKNDYCGQGTQVTVSS",
    "polyreactivity (PSR sort gate)": "low polyreactivity"
  }
]

* * *

Test: yeast display, Sf9 membrane polyspecificity reagent, FACS + sequencing; frameworks hold sequencing errors
observable: polyreactivity (PSR sort gate)

[
  {
    "construct sequence": "QVQLVESGGGLVQAGGSLRLSCAASGRIFSYNAMGWYRQEPGKERELVASITSGGGRTYYADSVKGRFTISRDYAKNTVYLQMNSLKPVDTAVYYCAADGEVKYDYWGQGTQVTVSS",
    "result": "low polyreactivity"
  },
  {
    "construct sequence": "QVQLVDSGGGLVQAGGSLRLSCAASGYIFHLYGMGWYRQAPGKERELVARISYRGGSTYYADSVKGRFTISRDNAKNTVYLQMHSLKPEDTAVYYCAKDYYKHYYWGQGTQVTVSS",
    "result": "high polyreactivity"
  },
  {
    "construct sequence": "QVQLVESGGGLVQAGGSLRLSCAASGRILGKNTMGWYRQAPGKEREFVAAISASGGRTYYADSVKGRFTISRDNAKYTVYLQMNSLKPEDTAVYYCAAARSRYSYATGFDYWGQGTQVTVSS",
    "result": "high polyreactivity"
  },
  {
    "construct sequence": "HVQLQESGGGLVQAGGSLRLSCAASGNISYSRNMGWYRQAQGKERELVAAIDRGAITYYADSVKGRFTISRDNAKNTVDLQIYSLNPEDTAVYYCAAEYHDRWDHRYWGQGTQVTVSS",
    "result": "high polyreactivity"
  },
  {
    "construct sequence": "QVQLVESGGGLVQAGGSLRLSCAASGFIFWHYAMGWYRQAPGKERELVAAISWSGGRTYYADSVKGRFTISRDNAKNTVYLQMNSLKPEDTAVYYCARSKRVTPYEYDYWGQGTQVTVSS",
    "result": "high polyreactivity"
  },
  {
    "construct sequence": "QVQLVESGGGLVHAGGSLRLSCAASGSIIDRNAMGWYRQAPGKERELVASITRGGSTNYADSVKGRFTISRDNEKNTVYLQMNSLKPEDTAVYYCADDRVYLGMFRYEYWGQGTQVTVSS",
    "result": "high polyreactivity"
  }
]

Below are 3 sequences. Give each one its polyreactivity (PSR sort gate).
1. QVQLVESGGGLVQAGGSLRLSCAASGSTFVTNGMGWYRQEPGKERELVAAISGNVGSTYYADSVKGRFTISRDNEKNTVYLQMNSLKPEDTAVYYCAARQYRPSDYDYWGQGTQVTVSS
2. QVQLVESGGGLVQAGGSLRLSCAASGLIFAEYAMGWYRQAPGKERELVARITSGGSTDYADSVKGRFTISRDNAKNTVYLQMNSLKPEDTALYYCAARYYSQDNNASTASDFDYWGQGTQVTVSS
3. QVQLVESGGGLVQAGGSLRLSCAASGSIFSRYAMGWYRQAPGKERELVAAISRRGGTTYYADSVKGRFTISRDNAKNTVYLQMNSQKPVDTAVYYCAAVFVTQSFIYDYYYWGQGTQVTVSS

low polyreactivity
low polyreactivity
high polyreactivity

Below are 2 sequences. Give each one its polyreactivity (PSR sort gate).
1. QVQLVESGGGLVQAGGSLRLSCAASGRTFALYALGRYRQAPGKERELVASISWRGGSTYYADSVKGRFTISRDNANNTVYVQMNRLKPEDTAVSYCAADTGSYGPLIYRLEYWGQGTQVNVSS
2. QVQIVESGGGLVQAGGSLRLSCAPSGSTFWLYAMGWYRHAPGKERELVASISSRGGSTYYADSVTGRFTISRDNAKNTVYLQMNSLKPEDTAVYYCAAKDIRYDDEYWGQGTQVTVSS

["low polyreactivity", "low polyreactivity"]
